EXPERIMENTAL TARGET: equine FcRn (large alpha subunit p51) / equine beta-2-microglobulin complex, biotinylated (equine) (UniProt P30441)
ASSAY TEXT: SPR (Biacore), pH 6
REPORTED PROPERTY: Kd
A complete answer gives the number followed by the unit.

Request the reported Kd associated with equine IgG1 G426L (antibody, part only; not given: variable domains, not shown: another chain or arm of the molecule) constant: ASTTAPKVFALAPGCGTTSDSTVALGCLVSGYFPEPVKVSWNSGSLTSGVHTFPSVLQSSGFYSLSSMVTVPASTWTSETYICNVVHAASNFKVDKRIEPIPDNHQKVCDMSKCPKCPAPELLGGPSVFIFPPNPKDTLMITRTPEVTCVVVDVSQENPDVKFNWYMDGVEVRTATTRPKEEQFNSTYRVVSVLRIQHQDWLSGKEFKCKVNNQALPQPIERTITKTKGRSQEPQVYVLAPHPDELSKSKVSVTCLVKDFYPPEINIEWQSNGQPELETKYSTTQAQQDSDGSYFLYSKLSVDRNRWQQGTTFTCLVMHEALHNHYTQKNVSKNPGK
9.61 nM
